target: Sentrin-specific protease 7 (Homo sapiens, UniProt Q9BQF6); format: functional;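 also: Luminescence-based dose-response confirmation of ultra-high-throughput screening hits, measuring inhibition of SENP7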
Sequence (Q9BQF6 whole entry): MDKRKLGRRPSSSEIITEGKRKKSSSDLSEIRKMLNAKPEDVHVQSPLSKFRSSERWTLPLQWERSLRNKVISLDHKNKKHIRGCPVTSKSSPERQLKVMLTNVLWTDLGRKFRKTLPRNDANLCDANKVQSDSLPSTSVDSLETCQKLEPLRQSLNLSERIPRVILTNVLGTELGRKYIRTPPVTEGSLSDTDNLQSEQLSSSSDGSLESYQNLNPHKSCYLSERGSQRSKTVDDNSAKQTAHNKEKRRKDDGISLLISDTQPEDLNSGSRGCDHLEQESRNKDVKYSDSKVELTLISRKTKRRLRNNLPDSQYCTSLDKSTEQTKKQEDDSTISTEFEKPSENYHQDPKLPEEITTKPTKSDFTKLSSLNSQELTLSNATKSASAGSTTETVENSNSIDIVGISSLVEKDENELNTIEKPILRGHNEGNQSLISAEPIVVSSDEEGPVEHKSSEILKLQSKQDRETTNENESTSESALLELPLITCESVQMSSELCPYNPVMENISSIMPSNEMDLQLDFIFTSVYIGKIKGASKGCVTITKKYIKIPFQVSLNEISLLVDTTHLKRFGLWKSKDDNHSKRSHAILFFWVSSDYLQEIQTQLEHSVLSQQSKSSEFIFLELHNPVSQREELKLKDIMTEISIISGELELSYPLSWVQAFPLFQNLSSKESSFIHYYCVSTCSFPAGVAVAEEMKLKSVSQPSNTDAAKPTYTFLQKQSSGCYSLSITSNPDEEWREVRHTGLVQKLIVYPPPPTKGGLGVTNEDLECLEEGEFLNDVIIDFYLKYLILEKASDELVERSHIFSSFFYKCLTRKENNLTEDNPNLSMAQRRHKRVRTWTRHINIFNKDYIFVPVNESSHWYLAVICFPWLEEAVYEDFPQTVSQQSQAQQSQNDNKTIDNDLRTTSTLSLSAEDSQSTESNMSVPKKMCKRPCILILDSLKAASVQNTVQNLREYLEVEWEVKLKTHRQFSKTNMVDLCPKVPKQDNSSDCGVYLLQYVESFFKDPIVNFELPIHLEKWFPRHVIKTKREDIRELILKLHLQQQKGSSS
The source made the active and inactive calls.
Parameter: IC50

Solved cases below.
INSERT INTO assay_data (mol_smiles, parameter, experimental_value) VALUES
  ('CC(=O)c1cccc2c1N=C(c1[nH]c3ccccc3c1O)C2=O', 'IC50', '15.7 µM (active)'),
  ('CCCC[n+]1ccn(C2=C([N-]S(=O)(=O)c3ccc(Cl)cc3)C(=O)c3ccccc3C2=O)c1', 'IC50', '22 µM (active)'),
  ('O=[N+]([O-])c1ccc(N/N=N/c2ccccc2)cc1', 'IC50', '9.64 µM (active)');

Now turn to the next compound.
INPUT: May I ask what IC50 has been recorded for CCOC(=O)c1ccc(Nc2cnc3ccccc3n2)cc1 ?
OUTPUT: 6.72 µM (active)

----------
target: Voltage-gated N-type calcium channel alpha-1B subunit/Amyloid beta A4 precursor protein-binding family A member 1 (Homo sapiens, UniProt Q00975+Q02410); format: protein assay
Calls of active or inactive are those of the source.
Parameter: IC50

Solved cases below.
INSERT INTO results (compound, experimental_value) VALUES
  ('O=C(Nc1nc2cc3c(cc2s1)OCCO3)c1ccc(N2C(=O)CCC2=O)cc1', '23 µM (active)'),
  ('CCOC(=O)C1=C(C)N=c2s/c(=C\c3ccc(OCC(=O)O)cc3)c(=O)n2C1c1ccc(Cl)cc1 (stereo not given)', '33.7 µM (active)'),
  ('Cc1c(Cc2ccccc2)sc(NC(=O)c2ccco2)c1C(N)=O', '9.09 µM (active)'),
  ('O=C(O)c1ccc(N2C(=O)/C(=C/c3ccc(-c4ccc([N+](=O)[O-])cc4)o3)C=C2c2ccccc2)cc1', '5.56 µM (active)');

Now turn to the next compound.
INPUT: May I ask what IC50 has been recorded for COc1ccc(C2CC(=O)N3CN(c4ccc(C)c(Cl)c4)CSC3=C2C#N)cc1OC (stereo not given) ?
OUTPUT: > 56.8 µM (not active)

----------
target: Corticotropin-releasing factor receptor 2/Corticotropin-releasing factor-binding protein (Homo sapiens, UniProt P24387+Q13324); assay: Dose Response confirmation of uHTS hits for small molecule antagonists of the CRF-binding protein and CRF-R2 receptor complex.; format: functional; details: read-out: IC50_Mean
Sequence (Q13324 whole entry): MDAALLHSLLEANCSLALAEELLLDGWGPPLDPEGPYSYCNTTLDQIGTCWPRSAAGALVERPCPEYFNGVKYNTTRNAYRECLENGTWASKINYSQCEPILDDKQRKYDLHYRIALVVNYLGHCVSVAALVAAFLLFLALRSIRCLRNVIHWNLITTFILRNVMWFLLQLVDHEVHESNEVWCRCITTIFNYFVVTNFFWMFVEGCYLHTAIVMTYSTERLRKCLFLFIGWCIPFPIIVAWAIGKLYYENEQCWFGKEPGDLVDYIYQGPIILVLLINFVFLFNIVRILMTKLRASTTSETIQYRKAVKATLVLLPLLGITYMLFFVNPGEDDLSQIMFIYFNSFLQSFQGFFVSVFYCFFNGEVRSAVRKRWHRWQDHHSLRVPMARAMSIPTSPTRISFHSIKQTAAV
Sequence (P24387 whole entry): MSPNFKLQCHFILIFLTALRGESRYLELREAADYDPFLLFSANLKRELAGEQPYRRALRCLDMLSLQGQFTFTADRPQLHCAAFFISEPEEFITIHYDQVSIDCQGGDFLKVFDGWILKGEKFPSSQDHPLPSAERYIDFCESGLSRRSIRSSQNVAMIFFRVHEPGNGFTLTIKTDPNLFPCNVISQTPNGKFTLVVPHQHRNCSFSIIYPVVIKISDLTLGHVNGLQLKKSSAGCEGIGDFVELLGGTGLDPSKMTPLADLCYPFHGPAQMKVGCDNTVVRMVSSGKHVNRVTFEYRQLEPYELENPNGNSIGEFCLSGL
Activity calls are given as the source filed them.
Respond using exactly one of the listed classes: Yes for active, No for inactive

Some entries whose results are on file:
INSERT INTO assay_data (mol_smiles, assigned_class) VALUES
  ('Cc1ccc(C(=O)COc2cc(O)c3c(=O)cc(-c4ccccc4)oc3c2)cc1', 'No'),
  ('CC(C)(C)c1cc(C(=O)O)nn1-c1ccccc1', 'No');

INPUT: Recorded call for O=C(COC(=O)c1ccncc1)Nc1cc(Cl)ccc1Cl ?
OUTPUT: No

INPUT: Recorded call for CCOc1ccccc1N(C)C(=O)Cn1ncc2c3ccccc3nc-2c1O ?
OUTPUT: No

INPUT: Recorded call for O=C(c1cccc(S(=O)(=O)N2CCOCC2)c1)N(Cc1ccc(F)cc1)Cc1ccco1 ?
OUTPUT: Yes

INPUT: Recorded call for CCOC(=O)c1[nH]c2ccccc2c1NC(=O)Nc1ccc(OC)cc1 ?
OUTPUT: No

----------
Entries annotated with measured IC50
biological target: Fatty acid synthase (Homo sapiens, UniProt P49327); experiment: FAS thioesterase domain inhibitors, dose response, biochemical, kinetic fluorescence intensity (AID 624326); format: functional;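 also: rate of fluorescence rise from hydrolysis of a fluorogenic O-methyl fluorescein ester substrate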
Sequence (P49327 whole entry, the tested form may be a part): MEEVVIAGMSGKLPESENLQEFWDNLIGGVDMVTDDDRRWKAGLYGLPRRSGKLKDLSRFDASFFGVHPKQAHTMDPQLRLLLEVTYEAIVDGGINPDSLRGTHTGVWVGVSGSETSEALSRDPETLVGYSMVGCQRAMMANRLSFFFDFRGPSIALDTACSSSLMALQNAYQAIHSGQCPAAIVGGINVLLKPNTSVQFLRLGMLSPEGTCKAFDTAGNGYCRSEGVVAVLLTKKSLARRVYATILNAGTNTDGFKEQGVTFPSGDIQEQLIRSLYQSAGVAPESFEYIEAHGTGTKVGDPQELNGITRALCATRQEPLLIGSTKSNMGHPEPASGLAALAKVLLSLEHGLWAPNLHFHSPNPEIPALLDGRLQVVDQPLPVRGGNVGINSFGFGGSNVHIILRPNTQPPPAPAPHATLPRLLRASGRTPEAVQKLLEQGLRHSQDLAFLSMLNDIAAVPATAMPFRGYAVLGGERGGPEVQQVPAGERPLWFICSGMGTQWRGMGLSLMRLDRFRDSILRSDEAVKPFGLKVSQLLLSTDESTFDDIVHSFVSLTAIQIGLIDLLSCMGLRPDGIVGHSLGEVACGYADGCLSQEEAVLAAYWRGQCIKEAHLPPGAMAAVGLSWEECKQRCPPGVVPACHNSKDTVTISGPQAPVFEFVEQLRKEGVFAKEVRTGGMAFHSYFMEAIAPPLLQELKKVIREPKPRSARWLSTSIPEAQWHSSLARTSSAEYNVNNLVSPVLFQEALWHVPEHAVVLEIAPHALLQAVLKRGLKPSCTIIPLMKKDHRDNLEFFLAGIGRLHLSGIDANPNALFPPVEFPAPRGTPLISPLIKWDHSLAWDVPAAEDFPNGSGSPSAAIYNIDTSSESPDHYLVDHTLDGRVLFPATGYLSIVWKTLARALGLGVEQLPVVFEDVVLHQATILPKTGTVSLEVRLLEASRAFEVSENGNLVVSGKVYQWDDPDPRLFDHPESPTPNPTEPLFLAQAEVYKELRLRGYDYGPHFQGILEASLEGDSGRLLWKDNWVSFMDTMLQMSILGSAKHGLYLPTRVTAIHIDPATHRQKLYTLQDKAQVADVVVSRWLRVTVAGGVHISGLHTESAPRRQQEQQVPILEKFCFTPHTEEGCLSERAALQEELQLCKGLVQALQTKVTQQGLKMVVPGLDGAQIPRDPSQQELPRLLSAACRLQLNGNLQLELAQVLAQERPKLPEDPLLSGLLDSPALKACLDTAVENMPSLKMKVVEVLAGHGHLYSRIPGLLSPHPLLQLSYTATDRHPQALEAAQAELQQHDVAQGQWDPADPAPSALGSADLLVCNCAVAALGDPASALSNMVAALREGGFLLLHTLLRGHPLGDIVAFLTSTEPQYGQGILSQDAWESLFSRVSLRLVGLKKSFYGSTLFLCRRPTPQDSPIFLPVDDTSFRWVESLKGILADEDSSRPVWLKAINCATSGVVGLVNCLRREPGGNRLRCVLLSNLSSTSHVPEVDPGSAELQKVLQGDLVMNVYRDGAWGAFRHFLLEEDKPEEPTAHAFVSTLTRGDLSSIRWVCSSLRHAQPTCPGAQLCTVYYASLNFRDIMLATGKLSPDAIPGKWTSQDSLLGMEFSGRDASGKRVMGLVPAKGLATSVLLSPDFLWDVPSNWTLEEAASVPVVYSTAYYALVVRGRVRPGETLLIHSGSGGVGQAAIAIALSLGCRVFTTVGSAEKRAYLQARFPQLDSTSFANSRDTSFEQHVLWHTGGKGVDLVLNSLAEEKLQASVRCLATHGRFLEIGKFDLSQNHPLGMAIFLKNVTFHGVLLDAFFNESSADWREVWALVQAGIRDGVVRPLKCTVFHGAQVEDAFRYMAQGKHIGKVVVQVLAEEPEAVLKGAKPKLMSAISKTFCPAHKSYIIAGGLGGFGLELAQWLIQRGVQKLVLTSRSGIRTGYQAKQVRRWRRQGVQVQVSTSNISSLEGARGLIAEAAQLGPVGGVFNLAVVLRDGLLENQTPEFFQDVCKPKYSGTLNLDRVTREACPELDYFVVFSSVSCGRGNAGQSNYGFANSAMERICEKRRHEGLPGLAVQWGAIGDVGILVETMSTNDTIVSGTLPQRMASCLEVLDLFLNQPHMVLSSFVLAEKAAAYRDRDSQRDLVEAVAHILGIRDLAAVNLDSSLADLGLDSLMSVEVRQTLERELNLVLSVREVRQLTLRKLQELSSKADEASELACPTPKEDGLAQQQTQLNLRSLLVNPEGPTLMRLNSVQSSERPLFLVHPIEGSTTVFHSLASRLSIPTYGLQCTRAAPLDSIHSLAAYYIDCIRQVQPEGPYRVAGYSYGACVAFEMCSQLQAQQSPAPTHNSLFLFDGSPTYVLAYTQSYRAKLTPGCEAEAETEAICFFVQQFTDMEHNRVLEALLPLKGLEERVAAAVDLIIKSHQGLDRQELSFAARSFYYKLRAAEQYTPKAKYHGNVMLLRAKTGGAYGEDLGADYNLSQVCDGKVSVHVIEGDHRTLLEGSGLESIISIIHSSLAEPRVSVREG
The source made the active and inactive calls.

Solved cases below.
INSERT INTO results (compound, experimental_value) VALUES
  ('CCC1CCCCN1S(=O)(=O)c1ccc(NC(=O)c2nc(S(C)(=O)=O)ncc2Cl)cc1 (stereo not drawn)', '4.03 µM (active)'),
  ('O=C(COC(=O)c1cc([N+](=O)[O-])ccc1N1CCOCC1)c1ccccc1', '6.51 µM (active)'),
  ('Cc1c(Br)c([N+](=O)[O-])nn1CC(=O)N1CCc2ccccc2C1', '6.67 µM (active)'),
  ('O=[N+]([O-])c1ccc(CSc2ccc(S(=O)(=O)N3CCCC3)cn2)cc1', '10.6 µM (active)'),
  ('Cc1ccc(/C=C/c2ccc(=O)n(Cc3ccc(F)cc3)n2)cc1', '14 µM (active)');

INPUT: May I ask what IC50 has been recorded for Cc1ccc([N+](=O)[O-])cc1NC(=O)C(Sc1ccccc1)c1ccccc1 (stereo not drawn) ?
OUTPUT: 1.73 µM (active)

INPUT: May I ask what IC50 has been recorded for Cc1onc(-c2ccccc2)c1C(=O)n1nnc2ccccc21 ?
OUTPUT: 10.3 µM (active)

INPUT: May I ask what IC50 has been recorded for CCCC(C)C1c2c(c(C)c(C)oc2=O)Oc2c(C)c(C)oc(=O)c21 (stereo not drawn) ?
OUTPUT: 8.38 µM (active)

----------
These records show AC50 for Cytochrome P450 2D6 (Homo sapiens, UniProt P10635).

Solved cases below.
INSERT INTO results (compound, experimental_value) VALUES
  ('CS(=O)(=O)N1CCN(c2ccccc2NC(=O)c2ccc(Br)o2)CC1', '22.4 µM (inconclusive)'),
  ('O=c1c(-c2cccs2)nc2cnc(N3CCNCC3)nc2n1CCc1ccccc1', '25.1 µM (inconclusive)'),
  ('C=C(C)c1cccc(C(C)(C)NC(=O)Nc2cc(C)ccc2OC)c1', '12.6 µM (inconclusive)'),
  ('COc1ccc(CCN(C(=O)C(F)(F)F)C(C(=O)NC2CCCC2)c2cccs2)cc1 (stereo unspecified)', '25.1 µM (inconclusive)'),
  ('C/C(CCN1CCCc2nc(C)c(C)cc21)=N\O[C@@H](C)c1cn([C@H](CO)Cc2ccccc2)nn1', '3.98 µM (inconclusive)');

Now turn to the next compound.
INPUT: Value wanted: AC50 (Cytochrome P450 2D6 (Homo sapiens, UniProt P10635)) of entry c1ccc2nc(C3=NCCN3)ccc2c1
OUTPUT: 20 µM (inconclusive)

----------
molecular target: Carboxy-terminal domain RNA polymerase II polypeptide A small phosphatase 1 (Homo sapiens); assay: inhibitors of CTDSP1, concentration-response testing, biochemical assay, absorbance-based, actives from ultra-high-throughput screening (AID 540297); format: functional
Sequence (Q9GZU7 whole entry, the tested form may be a part): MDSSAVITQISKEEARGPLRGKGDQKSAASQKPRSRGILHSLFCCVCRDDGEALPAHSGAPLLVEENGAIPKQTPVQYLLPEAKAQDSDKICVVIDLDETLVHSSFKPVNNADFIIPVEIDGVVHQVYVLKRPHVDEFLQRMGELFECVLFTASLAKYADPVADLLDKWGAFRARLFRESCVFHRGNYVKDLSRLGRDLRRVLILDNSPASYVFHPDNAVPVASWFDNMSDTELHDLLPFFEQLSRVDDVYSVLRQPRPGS
The source made the active and inactive calls.
Respond using exactly one of the listed classes: active, inactive

Some entries whose results are on file:
INSERT INTO results (compound, assigned_class) VALUES
  ('CCOc1ccc(C(C)=O)cc1N1C(=O)C2C3C=CC(C3)C2C1=O (centres undefined)', 'active'),
  ('COC(=O)C1CCN(C(=O)COC(=O)CNS(=O)(=O)c2ccc(SC)c([N+](=O)[O-])c2)CC1', 'active'),
  ('O=C(N/N=C\c1ccc(OC(=O)c2cccs2)cc1)c1ccc(Cl)cc1', 'active');

INPUT: Recorded call for N#C/C(=C\c1ccc[nH]1)C(=O)Nc1ccccc1[N+](=O)[O-] ?
OUTPUT: active

INPUT: Recorded call for C=C(C)C(=O)Nc1cccc(C2=NOC3(C2)C[C@@H](C(N)=O)N(C(=O)C(=C)C)C3)c1 (some centres undefined) ?
OUTPUT: active

INPUT: Recorded call for O=C(NCc1ccco1)C1Cc2ccccc2CN1S(=O)(=O)c1ccccc1F (centres undefined) ?
OUTPUT: active

INPUT: Recorded call for CCCCNC(=O)c1ccc2nc(-c3ccco3)c(-c3ccco3)nc2c1 ?
OUTPUT: active

INPUT: Recorded call for O=C(COC(=O)c1ccc(S(=O)(=O)N2CCCCC2)cc1)NCc1ccco1 ?
OUTPUT: active

INPUT: Recorded call for O=C(NCc1cccc(CNC(=O)C(=O)NCc2ccco2)c1)C(=O)NCc1ccco1 ?
OUTPUT: inactive

----------
target: Peroxisome proliferator-activated receptor gamma/Nuclear receptor coactivator 3 (Homo sapiens); test: TR-FRET dose response biochemical High Throughput Screening assay for agonists of the steroid receptor coactivator 3 (SRC-3) recruitment by the peroxisome proliferator-activated receptor gamma (PPAR gamma): non-selective agonists. [Related pubchem assays: 1301 (Confirmation screen.), 1048 (Primary screen.)]; assay type: functional
Entries annotated with measured EC50

INSERT INTO measurements (compound, parameter, experimental_value) VALUES
  ('Cc1cc2cc(CNC(=O)c3ccc(S(=O)(=O)N4CCOCC4)cc3)ccc2n1C', 'EC50', '15.7 µM (not active)');

INPUT: May I ask what EC50 has been recorded for CCn1c(=O)cc(SCC(=O)N2CCN(c3ccccc3OC)CC2)c2ccccc21 ?
OUTPUT: > 79.4 µM (not active)

INPUT: May I ask what EC50 has been recorded for N#CCCN1CCN(C(=S)c2ccc(-c3ccc(Cl)cc3)o2)CC1 ?
OUTPUT: > 79.4 µM (not active)

INPUT: May I ask what EC50 has been recorded for CCC(OC(=O)c1cc2sccc2n1C)C(=O)NCc1ccco1 (centres undefined) ?
OUTPUT: > 79.4 µM (not active)

----------
biological target: Large T antigen (Simian virus 40); format: functional, Betapolyomavirus macacae;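 also: Confirmatory-stage PubChem screen for compounds that inhibit SV40 T antigen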
Active and inactive are the calls of the source.
Entries annotated with measured IC50

Solved cases below.
INSERT INTO assay_data (compound, experimental_value) VALUES
  ('Cc1cccc(C(=O)Nc2ccc(O)cc2)c1', '10.7 µM (active)'),
  ('CCC1CCCCN1S(=O)(=O)c1ccc(NC(=O)c2nc(S(C)(=O)=O)ncc2Cl)cc1 (configuration not stated)', '44.8 µM (active)'),
  ('Oc1ccc(/C=N/Nc2ncnc3c2ncn3Cc2ccccc2)cc1O', '3.87 µM (active)'),
  ('C/N=c1\scc(C)n1/N=C/c1cc(Br)c(O)c(OC)c1', '5.8 µM (active)'),
  ('CCN1C(=O)C(=C/C=C/c2ccco2)C(=O)N(CC)C1=S', '45.3 µM (active)'),
  ('CCN1C(=O)/C(=C\c2ccc([N+](=O)[O-])s2)C(=O)NC1=S', '91.6 µM (active)');

Now turn to the next compound.
INPUT: May I ask what IC50 has been recorded for COc1cc(/C=N/n2c(S)nnc2-c2[nH]nc3c2CCC3)ccc1O ?
OUTPUT: 7.5 µM (active)
